Test system: Molt-4 cells
Assay: Cell viability counter screen assay (CellTiter-Glo) in Molt-4 cells
Assay type: cell-based
Conditions: 24 hours, 10% Human Serum, 50% decrease in cell viability
Reported EC50 values follow for various molecules

| Molecule | Assayed System | Relation | EC50 / µM |
| --- | --- | --- | --- |
| CC1(C)CC(c2ccc(Cl)cc2)=C2CN3CCN(c4ccc(C(=O)NS(=O)(=O)c5ccc(NC[C@H]6CC[C@](C)(O)CC6)c([N+](=O)[O-])c5)c(N5CCCOc6nc7[nH]ccc7cc65)c4)C[C@H]3COCCCO[C@@H]2C1 [Example 32] | Molt-4 cells | = | 9.57 |
| CO[C@H]1C[C@H](Nc2ccc(S(=O)(=O)NC(=O)c3ccc(N4CCN5CC6=C(c7ccc(Cl)cc7)CC(C)(C)C[C@H]6OCCCOC[C@@H]5C4)cc3N3CCCOc4nc5[nH]ccc5cc43)cc2[N+](=O)[O-])C1 [Example 30] | Molt-4 cells | > | 10 |
| COCCO[C@H]1CC[C@H](CNc2ccc(S(=O)(=O)NC(=O)c3ccc(N4CCN5CC6=C(c7ccc(Cl)cc7)CC(C)(C)C[C@H]6OCCCOC[C@@H]5C4)cc3N3CCCOc4nc5[nH]ccc5cc43)cc2[N+](=O)[O-])OC1 [Example 35] | Molt-4 cells | = | 1.74 |
| CC1(C)CC(c2ccc(Cl)cc2)=C2CN3CCN(c4ccc(C(=O)NS(=O)(=O)c5ccc(OCC6(F)CCN(C7COC7)CC6)c(Cl)c5)c(N5CCCOc6nc7[nH]ccc7cc65)c4)C[C@H]3COCCCO[C@@H]2C1 [Example 9] | Molt-4 cells | = | 5.59 |
| CO[C@]1(CF)C[C@@H](CNc2ccc(S(=O)(=O)NC(=O)c3ccc(N4CCN5CC6=C(c7ccc(Cl)cc7)CC(C)(C)C[C@H]6OCCCOC[C@@H]5C4)cc3N3CCCOc4nc5[nH]ccc5cc43)cc2[N+](=O)[O-])C1 [Example 48] | Molt-4 cells | = | 5.84 |
| C[C@H]1CC[C@H](CNc2ccc(S(=O)(=O)NC(=O)c3ccc(N4CCN5CC6=C(c7ccc(Cl)cc7)CC(C)(C)C[C@H]6OCCCOC[C@@H]5C4)cc3N3CCCOc4nc5[nH]ccc5cc43)cc2[N+](=O)[O-])OC1 [Example 23] | Molt-4 cells | > | 10 |
| C[C@@H]1CC[C@H](CNc2ccc(S(=O)(=O)NC(=O)c3ccc(N4CCN5CC6=C(c7ccc(Cl)cc7)CC(C)(C)C[C@H]6OCCCOC[C@@H]5C4)cc3N3CCCOc4nc5[nH]ccc5cc43)cc2[N+](=O)[O-])OC1 [Example 21] | Molt-4 cells | = | 3.28 |
| CN1CCC(Nc2ccc(S(=O)(=O)NC(=O)c3ccc(N4CCN5CC6=C(c7ccc(Cl)cc7)CC(C)(C)C[C@H]6OCCCOC[C@@H]5C4)cc3N3CCCOc4nc5[nH]ccc5cc43)cc2[N+](=O)[O-])CC1 [Example 31] | Molt-4 cells | = | 1.22 |
| CC1(C)CC(c2ccc(Cl)cc2)=C2CN3CCN(c4ccc(C(=O)NS(=O)(=O)c5cnc(OCC6(F)CCN(C7COC7)CC6)c(Cl)c5)c(N5CCCOc6nc7[nH]ccc7cc65)c4)C[C@H]3COCCCO[C@@H]2C1 [Example 4] | Molt-4 cells | = | 2 |
